apparent K (half saturation) reference
target.or.test.system: KpSSB (Klebsiella pneumoniae subsp. pneumoniae …, UniProt A6TGW7 1-174)
assay.procedure: EMSA; monomer conc.; 1 complex; 20 mM Tris-HCl pH 8.0, 100 mM NaCl, 25°C 30 min, 1.7 nM DNA, protein 0-5000 nM; native 8% PAGE in TBE at 4°C
test.settings: protein: recombinant; tags: none (untagged); chain copies: 4; label: 5' 32P
Kindly provide the numeric value in nM only, without the unit symbol.

Solved cases (3 shown):
Req: Please report apparent K (half saturation) for the following binder: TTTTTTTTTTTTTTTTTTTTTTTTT (ssDNA) [dT25]
Resp: 200

Req: Please report apparent K (half saturation) for the following binder: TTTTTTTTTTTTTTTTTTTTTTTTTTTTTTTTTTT (ssDNA) [dT35]
Resp: 220

Req: Please report apparent K (half saturation) for the following binder: TTTTTTTTTTTTTTTTTTTTTTTTTTTTTTTTTTTTTTTTTTTTTTTTTT (ssDNA) [dT50]
Resp: 110

Could you now look at the following binder, please?
Req: Please report apparent K (half saturation) for the following binder: TTTTTTTTTTTTTTTTTTTTTTTTTTTTTTTTTTTTTTTTTTTTT (ssDNA) [dT45]
Resp: 100

Where these numbers come from: paper PMC4137731
